- Experimental system: human ether-à-go-go-related gene (hERG) potassium channel (human)
- Sequence (Q12809 whole entry, looked up): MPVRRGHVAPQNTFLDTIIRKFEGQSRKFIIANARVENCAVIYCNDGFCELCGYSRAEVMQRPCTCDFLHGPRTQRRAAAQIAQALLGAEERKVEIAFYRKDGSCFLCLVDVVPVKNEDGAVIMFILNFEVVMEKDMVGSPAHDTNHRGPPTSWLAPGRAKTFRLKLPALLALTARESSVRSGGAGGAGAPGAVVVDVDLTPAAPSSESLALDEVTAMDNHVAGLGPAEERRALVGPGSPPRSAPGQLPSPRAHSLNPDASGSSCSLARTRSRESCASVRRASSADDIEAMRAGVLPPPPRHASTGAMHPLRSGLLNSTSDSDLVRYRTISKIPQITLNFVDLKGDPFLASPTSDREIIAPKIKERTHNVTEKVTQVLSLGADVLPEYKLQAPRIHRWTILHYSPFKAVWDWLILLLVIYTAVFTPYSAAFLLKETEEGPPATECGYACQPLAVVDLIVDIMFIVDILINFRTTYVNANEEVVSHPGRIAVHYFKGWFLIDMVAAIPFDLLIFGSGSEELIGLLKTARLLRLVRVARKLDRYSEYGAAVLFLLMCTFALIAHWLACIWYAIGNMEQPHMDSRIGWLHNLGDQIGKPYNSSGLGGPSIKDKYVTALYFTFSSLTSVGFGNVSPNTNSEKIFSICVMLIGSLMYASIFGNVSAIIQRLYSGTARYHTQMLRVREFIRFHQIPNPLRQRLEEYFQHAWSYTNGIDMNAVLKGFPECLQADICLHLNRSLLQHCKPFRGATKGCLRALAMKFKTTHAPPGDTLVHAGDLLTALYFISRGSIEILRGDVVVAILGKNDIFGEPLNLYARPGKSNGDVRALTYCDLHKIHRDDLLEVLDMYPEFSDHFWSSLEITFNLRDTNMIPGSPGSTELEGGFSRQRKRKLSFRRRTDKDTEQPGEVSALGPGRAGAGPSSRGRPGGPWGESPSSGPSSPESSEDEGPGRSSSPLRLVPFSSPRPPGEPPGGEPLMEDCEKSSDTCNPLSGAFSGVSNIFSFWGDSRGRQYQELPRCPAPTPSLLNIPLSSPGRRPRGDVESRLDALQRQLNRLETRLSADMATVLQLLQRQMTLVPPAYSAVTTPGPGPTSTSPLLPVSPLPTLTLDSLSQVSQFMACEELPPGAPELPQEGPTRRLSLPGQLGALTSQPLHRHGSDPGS
- Procedure details: primary screen, population patch clamp on CHO cells stably expressing hERG; higher = less effect of the substance
Screen size: about 310,000 compounds; about 2,200 (0.71%) showed an effect of 50% or more. Effects have a minus sign here. The sample as a whole holds a higher share of strong results than the screen did.
Please mark 1 (yes) if the recorded hERG current change (%, negative = inhibition) at 1uM is equal to or greater than -30%, and 0 (no) if it falls below.

[[record]]
molecule = "COc1ccc(CN(CCN(C)C)c2ccccn2)cc1.O=C(O)/C=C\\C(=O)O"
label_value = "1 (yes)"

[[record]]
molecule = "CC(C)(C)c1cc(C(=O)NN)n(Cc2ccc(Cl)cc2Cl)n1"
label_value = "1 (yes)"

[[record]]
molecule = "Cc1cccc(OCC(=O)Nc2ccc3c(c2)nc(CCN2CCN(c4ccccn4)CC2)n3C)c1"
label_value = "0 (no)"

[[record]]
molecule = "O=C(CN1CCN(c2cccc(Cl)c2)CC1)Nc1ccc([N+](=O)[O-])cc1C(=O)Nc1ccccc1F"
label_value = "1 (yes)"

[[record]]
molecule = "Cc1cc([N+](=O)[O-])ccc1NCc1ccccc1"
label_value = "1 (yes)"

[[record]]
molecule = "Cn1c(CCN2CCN(c3ccccn3)CC2)nc2cc(NC(=O)COc3ccc(Cl)cc3)ccc21"
label_value = "1 (yes)"

[[record]]
molecule = "COc1ccc(C(=O)C2CCCN(Cc3ccc4nonc4c3)C2)cc1F (stereo not shown)"
label_value = "1 (yes)"

[[record]]
molecule = "COc1cccc(CNc2ccc([N+](=O)[O-])cc2C)c1"
label_value = "1 (yes)"

[[record]]
molecule = "CC[N+](C)(C)CCN(Cc1ccc(Cl)cc1)c1ccccn1.[Br-]"
label_value = "0 (no)"

[[record]]
molecule = "O=C(CN1CCN(Cc2ccccc2)CC1)Nc1ccc([N+](=O)[O-])cc1C(=O)Nc1ccccc1F"
label_value = "0 (no)"

[[record]]
molecule = "CC(=O)N1CCc2cc(S(=O)(=O)CCC(=O)Nc3cc(C)cc(C)c3)ccc21"
label_value = "1 (yes)"

[[record]]
molecule = "CCCCCCCCCCCCCCCC[N+](C)(C)CCN(Cc1ccc(OC)cc1)c1ncccn1.[Br-]"
label_value = "0 (no)"

[[record]]
molecule = "Cn1c(CCN2CCN(c3ccccn3)CC2)nc2cc(NC(=O)COc3ccccc3)ccc21"
label_value = "0 (no)"

[[record]]
molecule = "CCC(=O)Nc1ccc2c(c1)nc(CCN1CCN(c3ccccn3)CC1)n2C"
label_value = "1 (yes)"

[[record]]
molecule = "Cc1cc([N+](=O)[O-])ccc1NCc1cccc([N+](=O)[O-])c1"
label_value = "0 (no)"

[[record]]
molecule = "COc1ccc(C(=O)C2CCCN(Cc3ccsc3)C2)cc1OC (stereo not shown)"
label_value = "0 (no)"

[[record]]
molecule = "COc1ccc(C(=O)C2CCCN(Cc3cnc(N4CCOCC4)s3)C2)cc1F (stereo not shown)"
label_value = "1 (yes)"

[[record]]
molecule = "COc1ccc(C(=O)C2CCCN(Cc3cccn3-c3nccs3)C2)cc1F (stereo not shown)"
label_value = "0 (no)"

[[record]]
molecule = "Cc1nn(-c2ccccc2)c(Cl)c1/C=C(\\CC(=O)O)c1nc2ccccc2s1"
label_value = "1 (yes)"

